# methodSummary: gradient 5% acetonitrile 3 min, to 50% in 2 min, to 85% in 15 min, held 3 min, 100 µL/min
# testParameters: column: Zorbax Extend-C18 2.1 x 50 mm; eluents: water / acetonitrile, 0.1% formic acid
measurementName: RP-LC retention time (s)

Recorded results for 8 compounds are shown here.
Cc1ccccc1/C=C/C1=NCCN1	665
Cc1cccc(NC(=O)C2CCN(S(C)(=O)=O)c3ccccc3O2)c1C (centres undefined)	844
COc1ccc(-c2ncc(NC(=O)C(C)C)cn2)cc1	802
CCN1CCCn2nc(C3CCN(C(=O)COc4ccccc4)CC3)cc2C1=O	678
CCN(CC)C(=O)CC(c1cc(OC)c(OC)c(OC)c1)N1Cc2ccccc2C1=O (centres undefined)	769
Cc1cc(C)c(NC(=O)C2CCN(c3c(C(=O)N4CCOCC4)cnc4snc(C)c34)CC2)c(C)c1	826
CCc1nc(-c2csc(S(=O)(=O)N3CCC(C(=O)Nc4ccc(C)c(C)c4)CC3)c2)no1	660
COCCN1CC2(CCCC2)N(Cc2ccc(C(C)C)cc2)CC1=O	690

[P] CCOC(=O)CC1=CC(SCC(=O)N(C)c2ccccc2)=Nc2ccccc2N1
[Q] O=C(NC1CCN(c2cc(-c3ccccc3)[nH]n2)C1)c1cccs1 (centres undefined)
Parameter metric = RP-LC retention time. Return the lower-valued option from P and Q . Write down the label of the entry you select.
Q
(Q: 630 s, P: 1100 s)

[I] O=C(c1ccc2ccnc(N3CCN(c4ccc(F)cc4)CC3)c2c1)N1CCCCC1
[II] COc1ccc(-n2c(=O)c(C(=O)NC3CCCCCC3)c(O)c3cccnc32)cc1
In the pair I and II , the larger recorded RP-LC retention time belongs to which? Give the chosen item's label as your response.
II

[1] CCc1ccc(CNC(=O)c2cc3n(n2)CC(C)(C(=O)NCCC(C)C)N(C)C3=O)cc1 (centres undefined)
[2] Cc1cn(C)c(CC(=O)NCCCN2CCOCC2)c1C(=O)O
Consider 1 and 2 . Which of these has its RP-LC retention time at a higher number? // return label of chosen record
1

[I] Nc1ccc(S(=O)(=O)NCC2CCCCO2)cc1 (centres undefined)
[II] Cc1ccc(C(=O)Nc2nccnc2C(=O)NC2CCCCC2)cc1
In terms of reported RP-LC retention time, does I or II have the smaller number? Indicate your choice by writing its label.
I
(I: 733 s, II: 1100 s)

* * *

# methodSummary: gradient 5% acetonitrile 3 min, to 50% in 2 min, to 85% in 15 min, held 3 min, 100 µL/min
# testParameters: column: Zorbax Extend-C18 2.1 x 50 mm; eluents: water / acetonitrile, 0.1% formic acid
measurementName: RP-LC retention time (s)

In the examples that follow, each entry is paired with its recorded RP-LC retention time.
CN(C)CC(=O)N1CC(F)(F)C[C@H]1c1nc(C2CC2)no1	584
O=C(Nc1ccccc1)N1[C@H]2CC[C@@H]1c1cncnc1C2	651
O=C(NC1CC(=O)N(Cc2ccccc2)C1)c1cnccn1 (stereo not given)	632
O=C(NCc1ccccc1F)C1CCN(c2cnc(N3CCCC3)nc2)CC1	654
CCOc1ccc(-n2nnnc2CNC(=O)NCc2cccs2)cc1	714

[P] Cc1ccc(-n2nc3c(N4CCCC(C(=O)NCCN5CCN(C)CC5)C4)nnc(C)c3c2C)cc1 (stereo not given)
[Q] CCSc1nnc(-c2nn(C)c3c2CN(S(=O)(=O)c2cccc(F)c2)CC3)n1CC
Please indicate which entry, P or Q , has the lower recorded RP-LC retention time value. Please identify the chosen entry by its label.
P
(P: 567 s, Q: 922 s)

[I] Cc1c(CC(=O)NC2CC2)c(=O)n2nc(-c3ccccc3)nc2n1C
[II] CCn1c(=O)c(N2CCN(C(=O)Nc3ccccc3Br)CC2)nc2cccnc21
Field: entry with larger RP-LC retention time (options I / II ). Identify your selection by its label.
II
